Source listed as paper PMC11528320.

List of IC50 values.
# System: P. falciparum 3D7
# ASSAY_REMARKS: in vitro asexual P. falciparum imaging assay, 3D7 strain
# Format: cell-based
# RECORDED_CONDITIONS: Plasmodium falciparum, 3D7, 72 h; read-out: 3D7 IC50
# Procedure: The antiplasmodial in vitro assay was performed as previously described.[13] […] Images were analysed as previously described,[13] and raw data normalized using the in-plate positive and negative controls to obtain percent inhibition, used to calculate IC50 values, through a four-parameter logistic curve fitting in Prism (GraphPad).
OBSERVABLE: IC50 (nM)

INSERT INTO measurements (given_smiles, recorded_number) VALUES
  ('CC(C)n1cc(NC(=O)c2cc(NC(=O)c3ccc(/C=C/c4cnc5ccccc5c4)cc3)cn2C)cc1C(=O)NCCN1CCOCC1.O=C(O)C(F)(F)F', 96.3),
  ('CC(C)CCc1sc(NC(=O)c2cc(NC(=O)c3ccc(/C=C/c4ccc(F)cc4)cc3)cn2C)nc1C(=O)NCCCN(C)C.O=C(O)C(F)(F)F', 150),
  ('Cn1cc(NC(=O)c2cc(NC(=O)c3ccc(/C=C/c4ccc5ccccc5c4)cc3)cn2C)cc1C(=O)NCCC(=N)N.O=C(O)C(F)(F)F', 302);
